Measured IC50 (UniProt Q8IYT8)
Sequence (Q8IYT8 with tags, fused parts or gaps): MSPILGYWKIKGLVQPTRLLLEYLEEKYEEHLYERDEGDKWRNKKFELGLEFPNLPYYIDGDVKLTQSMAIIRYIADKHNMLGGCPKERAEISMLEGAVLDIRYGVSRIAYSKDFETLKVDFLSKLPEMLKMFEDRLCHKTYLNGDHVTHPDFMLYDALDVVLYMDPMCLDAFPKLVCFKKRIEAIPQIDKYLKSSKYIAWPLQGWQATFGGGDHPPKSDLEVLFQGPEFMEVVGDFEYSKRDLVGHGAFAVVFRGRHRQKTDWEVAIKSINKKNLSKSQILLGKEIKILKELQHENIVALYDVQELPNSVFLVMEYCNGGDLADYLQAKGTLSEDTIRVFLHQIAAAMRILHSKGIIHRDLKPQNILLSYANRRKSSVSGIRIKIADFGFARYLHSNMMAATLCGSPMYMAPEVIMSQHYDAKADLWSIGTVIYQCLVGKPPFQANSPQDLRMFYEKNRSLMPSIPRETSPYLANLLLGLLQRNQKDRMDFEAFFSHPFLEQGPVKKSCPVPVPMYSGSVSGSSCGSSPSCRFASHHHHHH

Past entries and their recorded results:
- SMILES NOTATION: "Cc1nn(C2CCN(C)CC2)cc1Nc1ncc(C(F)(F)F)c(NCCCN2CCOCCC2=O)n1"
  IC50: "100 to 500 nM"
- SMILES NOTATION: "O=C1CCCCN1CCCNc1nc(Nc2cnn(C3CCNCC3)c2)ncc1C(F)(F)F"
  IC50: "1 to 25 nM"
- SMILES NOTATION: "CCN1CCC(n2cc(Nc3ncc(C(F)(F)F)c(NCCCN4CCOCCC4=O)n3)c(C)n2)CC1"
  IC50: "100 to 500 nM"

List the reported IC50 of each compound below.
1. Cc1nn(CCCN2CCCC2)cc1Nc1ncc(C(F)(F)F)c(NCCCN2CCCCCC2=O)n1
2. CN1CCC(n2cc(Nc3ncc(Cl)c(NCCCN4CCCCCC4=O)n3)cn2)CC1
3. Cc1nn(C2CCN(C)CC2)cc1Nc1ncc(Br)c(NCCCN2CCCCC2=O)n1

Completion:
100 to 500 nM
1 to 25 nM
25 to 100 nM

###

Biological target: LRRK2 kinase (Homo sapiens, UniProt Q5S007)
Sequence (Q5S007 with tags, fused parts or gaps): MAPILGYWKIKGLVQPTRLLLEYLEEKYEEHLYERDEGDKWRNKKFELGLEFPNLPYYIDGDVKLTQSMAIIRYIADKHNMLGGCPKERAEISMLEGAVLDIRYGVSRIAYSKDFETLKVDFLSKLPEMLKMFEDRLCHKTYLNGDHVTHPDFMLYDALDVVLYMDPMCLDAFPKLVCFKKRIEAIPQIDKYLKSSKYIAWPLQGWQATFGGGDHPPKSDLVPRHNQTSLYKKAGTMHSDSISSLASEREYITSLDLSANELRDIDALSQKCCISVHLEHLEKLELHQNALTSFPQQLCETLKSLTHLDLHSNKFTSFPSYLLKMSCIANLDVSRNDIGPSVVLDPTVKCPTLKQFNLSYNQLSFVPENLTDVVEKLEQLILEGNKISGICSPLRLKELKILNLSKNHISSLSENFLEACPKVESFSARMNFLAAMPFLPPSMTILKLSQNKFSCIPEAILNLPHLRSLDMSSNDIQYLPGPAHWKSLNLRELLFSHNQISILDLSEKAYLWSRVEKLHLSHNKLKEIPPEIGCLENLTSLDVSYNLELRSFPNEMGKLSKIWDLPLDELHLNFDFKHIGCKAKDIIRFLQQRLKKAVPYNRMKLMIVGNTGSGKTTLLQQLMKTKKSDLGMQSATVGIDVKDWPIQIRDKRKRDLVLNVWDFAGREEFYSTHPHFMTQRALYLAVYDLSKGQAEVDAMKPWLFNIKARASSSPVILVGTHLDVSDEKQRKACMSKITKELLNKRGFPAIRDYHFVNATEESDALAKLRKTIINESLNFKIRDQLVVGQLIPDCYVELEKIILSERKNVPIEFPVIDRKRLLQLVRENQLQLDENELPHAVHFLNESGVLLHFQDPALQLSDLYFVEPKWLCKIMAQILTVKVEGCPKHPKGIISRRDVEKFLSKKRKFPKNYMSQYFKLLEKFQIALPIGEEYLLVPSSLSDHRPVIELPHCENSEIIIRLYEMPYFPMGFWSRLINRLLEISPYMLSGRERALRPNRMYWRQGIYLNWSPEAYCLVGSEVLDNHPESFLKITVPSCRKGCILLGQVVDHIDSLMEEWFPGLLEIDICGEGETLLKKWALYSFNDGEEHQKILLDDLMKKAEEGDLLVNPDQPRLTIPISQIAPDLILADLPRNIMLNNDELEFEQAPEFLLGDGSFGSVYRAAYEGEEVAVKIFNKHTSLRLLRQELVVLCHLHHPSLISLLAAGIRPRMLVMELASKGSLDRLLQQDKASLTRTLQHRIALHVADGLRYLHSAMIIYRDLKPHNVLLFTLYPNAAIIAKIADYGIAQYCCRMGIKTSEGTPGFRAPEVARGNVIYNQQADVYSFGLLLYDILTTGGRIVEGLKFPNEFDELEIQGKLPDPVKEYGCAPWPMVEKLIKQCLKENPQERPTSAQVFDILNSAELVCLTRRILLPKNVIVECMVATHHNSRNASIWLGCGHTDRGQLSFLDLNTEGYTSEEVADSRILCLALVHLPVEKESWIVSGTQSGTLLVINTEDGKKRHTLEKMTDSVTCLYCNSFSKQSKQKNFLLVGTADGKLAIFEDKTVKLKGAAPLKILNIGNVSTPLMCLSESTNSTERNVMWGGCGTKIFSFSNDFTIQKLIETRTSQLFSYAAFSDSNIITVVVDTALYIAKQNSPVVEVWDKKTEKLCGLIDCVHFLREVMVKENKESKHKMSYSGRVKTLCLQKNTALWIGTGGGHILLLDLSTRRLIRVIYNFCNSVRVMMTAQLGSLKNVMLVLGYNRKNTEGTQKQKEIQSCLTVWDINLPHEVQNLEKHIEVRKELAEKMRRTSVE
Field: IC50. Provide a value for each of the molecules that follow.

Past entries and their recorded results:
- SMILES NOTATION: "Cc1nn(CCCN2CCOCC2)cc1Nc1ncc(C2CC2)c(NCCCN2CCCOCC2=O)n1"
  IC50: "> 0.6 µM"
- SMILES NOTATION: "Cc1nn(CCN(C)C)cc1Nc1ncc(Cl)c(NCCCN2CCCOCC2=O)n1"
  IC50: "> 0.6 µM"
- SMILES NOTATION: "Cc1nn(CCN2CCOCC2)cc1Nc1ncc(C(F)(F)F)c(NCCCN2CCCCCC2=O)n1"
  IC50: "0.1 to 0.3 µM"
- SMILES NOTATION: "Cc1nn(CCN(C)C)cc1Nc1ncc(C2CC2)c(NCCCN2CCCOCC2=O)n1"
  IC50: "> 0.6 µM"

As a next step, examine the molecule that follows.
Prompt: If you can, please state the reported IC50 value of "CC(C)CN1CC(n2cc(Nc3ncc(Cl)c(NCCCN4CCCC4=O)n3)cn2)C1" .
Completion: > 0.6 µM
